target_or_test_system: LNCaP type mutant androgen receptor (Homo sapiens, UniProt P10275, T878A)
Sequence (P10275 1-920 T878A): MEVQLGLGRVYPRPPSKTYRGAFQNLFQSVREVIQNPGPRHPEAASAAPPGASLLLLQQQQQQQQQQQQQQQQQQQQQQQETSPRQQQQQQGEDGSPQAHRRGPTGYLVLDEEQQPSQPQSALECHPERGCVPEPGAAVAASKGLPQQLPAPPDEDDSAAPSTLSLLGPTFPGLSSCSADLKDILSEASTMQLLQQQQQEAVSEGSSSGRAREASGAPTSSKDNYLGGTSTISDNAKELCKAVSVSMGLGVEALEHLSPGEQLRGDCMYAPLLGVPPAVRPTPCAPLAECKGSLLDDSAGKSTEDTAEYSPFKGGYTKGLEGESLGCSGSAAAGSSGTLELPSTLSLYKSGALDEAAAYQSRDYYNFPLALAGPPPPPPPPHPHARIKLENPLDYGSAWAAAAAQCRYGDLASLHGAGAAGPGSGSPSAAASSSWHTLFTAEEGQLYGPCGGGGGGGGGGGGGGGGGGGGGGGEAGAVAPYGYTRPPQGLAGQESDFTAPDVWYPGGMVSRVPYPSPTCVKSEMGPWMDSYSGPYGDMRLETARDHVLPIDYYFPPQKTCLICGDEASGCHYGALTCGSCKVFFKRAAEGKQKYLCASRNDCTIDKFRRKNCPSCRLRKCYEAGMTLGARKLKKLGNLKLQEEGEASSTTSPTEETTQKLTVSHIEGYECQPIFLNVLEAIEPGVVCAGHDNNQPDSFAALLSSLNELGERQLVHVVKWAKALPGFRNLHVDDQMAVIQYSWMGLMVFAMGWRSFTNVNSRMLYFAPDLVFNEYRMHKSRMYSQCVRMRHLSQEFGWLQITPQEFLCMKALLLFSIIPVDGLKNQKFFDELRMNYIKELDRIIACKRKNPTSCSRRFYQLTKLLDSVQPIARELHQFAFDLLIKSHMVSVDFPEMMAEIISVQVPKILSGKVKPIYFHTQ
assay_remarks: AR-binding inhibition test (LNCaP type)
recorded_conditions: radio labeled Mibolerone 3 nM; 4° C., 3 hours; dextran/charcoal method
pIC50: −log10 of the molar value.
measurement_kind: pIC50

CCOC(=O)c1c(-c2ccc([N+](=O)[O-])cc2)c(C)n(Cc2ccccc2)c1C | 8.12

a. CCOC(=O)c1c(C)[nH]c(C)c1-c1ccc([N+](=O)[O-])cc1
b. COC(=O)c1c(-c2ccc(C#N)cc2)c(C)n(Cc2ccc(C#N)cc2)c1C
input: Problem: Given the entries a and b , determine which has the lower reported pIC50. Kindly state the label of the option you pick.
output: a
